- assayed.target: human ether-à-go-go-related gene (hERG) potassium channel (human, UniProt Q12809)
- Sequence (Q12809 whole entry, looked up): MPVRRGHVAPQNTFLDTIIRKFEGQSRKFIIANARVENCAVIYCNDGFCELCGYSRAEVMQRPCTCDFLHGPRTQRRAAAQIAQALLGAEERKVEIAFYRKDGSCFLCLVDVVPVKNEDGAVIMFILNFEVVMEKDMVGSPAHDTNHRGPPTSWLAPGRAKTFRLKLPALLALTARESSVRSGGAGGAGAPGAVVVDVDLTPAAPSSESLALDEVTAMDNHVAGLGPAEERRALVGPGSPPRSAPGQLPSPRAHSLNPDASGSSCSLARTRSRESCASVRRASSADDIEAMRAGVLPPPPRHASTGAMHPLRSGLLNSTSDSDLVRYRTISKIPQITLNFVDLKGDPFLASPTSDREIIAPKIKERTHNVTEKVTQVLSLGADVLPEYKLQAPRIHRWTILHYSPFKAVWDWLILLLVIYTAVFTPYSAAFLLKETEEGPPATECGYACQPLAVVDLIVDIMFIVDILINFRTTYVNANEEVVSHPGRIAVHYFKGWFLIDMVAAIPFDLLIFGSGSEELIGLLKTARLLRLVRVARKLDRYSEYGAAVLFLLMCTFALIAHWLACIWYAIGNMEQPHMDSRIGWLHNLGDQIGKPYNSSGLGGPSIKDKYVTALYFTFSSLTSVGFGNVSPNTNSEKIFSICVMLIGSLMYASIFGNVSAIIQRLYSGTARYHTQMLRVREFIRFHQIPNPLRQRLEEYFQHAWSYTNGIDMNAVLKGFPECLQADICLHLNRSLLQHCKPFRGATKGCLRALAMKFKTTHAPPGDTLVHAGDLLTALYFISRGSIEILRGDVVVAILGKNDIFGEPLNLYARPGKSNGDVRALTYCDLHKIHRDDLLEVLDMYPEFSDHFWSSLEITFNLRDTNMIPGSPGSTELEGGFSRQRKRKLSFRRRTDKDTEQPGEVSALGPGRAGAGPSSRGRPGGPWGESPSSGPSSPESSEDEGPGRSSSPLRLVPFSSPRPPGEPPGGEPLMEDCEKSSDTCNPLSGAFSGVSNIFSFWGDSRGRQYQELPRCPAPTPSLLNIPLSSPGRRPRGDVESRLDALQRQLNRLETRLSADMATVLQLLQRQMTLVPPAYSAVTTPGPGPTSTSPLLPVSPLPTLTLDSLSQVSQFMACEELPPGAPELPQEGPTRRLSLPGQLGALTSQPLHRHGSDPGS
- protocol: primary screen, population patch clamp on CHO cells stably expressing hERG; higher = less effect of the substance
Screen size: about 310,000 compounds; about 14,000 (4.5%) showed an effect of 50% or more. The effect is printed as a negative number. This excerpt belongs to a sample that is enriched for strong results.
Known hERG current change (%, negative = inhibition) at 10uM of a selection of molecules
Entry rule: numbers only, all in %.

// solved cases for hERG current change (%, negative = inhibition) at 10uM follow
- molecule: "CCN1CCN(CC(O)COC(C)C)CC1.Cl (stereo not drawn)"
  observed.result: 2.08
- molecule: "COc1ccc(N2CCc3c(C)nc4c(OC)cccc4c32)cc1"
  observed.result: -73.5
- molecule: "Cc1nn(Cc2ccccc2)c(C)c1/C=N/NC(=O)c1ccncc1"
  observed.result: -46.4
- molecule: "Cl.OCCN1CCN(CC(O)COc2ccc(Cl)cc2)CC1 (stereo not drawn)"
  observed.result: -20.6

Q: Form field - read-out: hERG current change (%, negative = inhibition) at 10uM; system: human ether-à-go-go-related gene (hERG) potassium channel (human, UniProt Q12809); submitted item: CC(C)OCC(O)CN1CCNCC1.Cl (stereo not drawn)
A: 11.6

Q: Form field - read-out: hERG current change (%, negative = inhibition) at 10uM; system: human ether-à-go-go-related gene (hERG) potassium channel (human, UniProt Q12809); submitted item: Cc1nc2c(C)cccc2c2c1CCN2c1ccccc1F
A: -62.4

Q: Form field - read-out: hERG current change (%, negative = inhibition) at 10uM; system: human ether-à-go-go-related gene (hERG) potassium channel (human, UniProt Q12809); submitted item: COc1ccccc1N1CCc2c(C)nc3c(OC)cccc3c21
A: -61

Q: Form field - read-out: hERG current change (%, negative = inhibition) at 10uM; system: human ether-à-go-go-related gene (hERG) potassium channel (human, UniProt Q12809); submitted item: O=S(=O)(c1ccc(OCC(O)CN2CCC(Cc3ccccc3)CC2)cc1)N1CCOCC1 (stereo not drawn)
A: -44.4

Q: Form field - read-out: hERG current change (%, negative = inhibition) at 10uM; system: human ether-à-go-go-related gene (hERG) potassium channel (human, UniProt Q12809); submitted item: CC1Cc2nc(SCC(=O)Nc3nc4ccccc4s3)n(C)c(=O)c2S1 (stereo not drawn);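 note: peak tail current of the secondary pulse compared with the same well before compound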
A: -20.1

Q: Form field - read-out: hERG current change (%, negative = inhibition) at 10uM; system: human ether-à-go-go-related gene (hERG) potassium channel (human, UniProt Q12809); submitted item: O=C(CSc1nc(C(F)(F)F)cc(=O)[nH]1)Nc1nccs1;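 note: peak tail current of the secondary pulse compared with the same well before compound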
A: 18.5

---

- assayed.target: human ether-à-go-go-related gene (hERG) potassium channel (human, UniProt Q12809);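 note: peak tail current of the secondary pulse compared with the same well before compound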
- protocol: primary screen, population patch clamp on CHO cells stably expressing hERG; higher = less effect of the substance
Screen size: about 310,000 compounds; about 14,000 (4.5%) showed an effect of 50% or more. The effect is printed as a negative number. The sample holds strong results, similar compounds and a random draw of the others, so the mix is not that of the screen.
assay.endpoint: hERG current change (%, negative = inhibition) at 10uM (%)
Entry rule: numbers only, all in %.

// solved cases for hERG current change (%, negative = inhibition) at 10uM follow
- molecule: "COc1ccc(C(=O)C2CCN(C(=O)c3ccc(F)cc3)CC2)cc1"
  observed.result: -28.5
- molecule: "O=C(O)CNC(=O)/C(=C\\c1ccc2c(c1)OCO2)NC(=O)c1ccc(Br)cc1"
  observed.result: 8.77
- molecule: "COc1ccc(C(=O)N2CCC(C(=O)c3ccc(F)cc3)CC2)cc1"
  observed.result: -70.2
- molecule: "CN1CCCC(OC(=O)COc2ccccc2)C1.Cl (stereo not drawn)"
  observed.result: 10.4
- molecule: "CCNC(=O)/C(=C\\c1ccc2c(c1)OCO2)NC(=O)c1ccc(Br)cc1"
  observed.result: -69.7
- molecule: "COc1ccc(C(CC(=O)N2CCCC2)C(C)C)cc1 (stereo not drawn)"
  observed.result: -2.25
- molecule: "O=S(=O)(NCCCc1ccccc1)c1ccccc1"
  observed.result: 10.3
- molecule: "CCc1cc(=O)oc2cc(C)cc(OCC(=O)NC(Cc3ccc(Cl)cc3)C(=O)O)c12 (stereo not drawn)"
  observed.result: -9.21
- molecule: "CN1CCCC(CC2Oc3ccccc3Sc3ccccc32)C1.O=C(O)C(=O)O (stereo not drawn)"
  observed.result: -67
- molecule: "O=C(c1ccccc1)N1CCN(c2ccc(Cl)cc2)CC1"
  observed.result: -25.1

Q: Query (molecule): CCOC(=O)Nc1ccc(C(=O)/C=C/c2ccccc2)cc1 ; field requested: hERG current change (%, negative = inhibition) at 10uM
A: -7.78

Q: Query (molecule): NC(=O)c1ccccc1NC(=O)c1ccc2c(c1)OCO2 ; field requested: hERG current change (%, negative = inhibition) at 10uM
A: 5.14

Q: Query (molecule): COc1ccc(C(CC(=O)N2CCCCC2)C(C)C)cc1 (stereo not drawn) ; field requested: hERG current change (%, negative = inhibition) at 10uM
A: 15.8

Q: Query (molecule): COc1ccc(C(CC(=O)N2CCCC2)c2ccc(F)cc2)cc1 (stereo not drawn) ; field requested: hERG current change (%, negative = inhibition) at 10uM
A: -71.5

Q: Query (molecule): CCNC(=O)/C(=C/c1ccc2c(c1)OCO2)NC(=O)c1ccc(Br)cc1 ; field requested: hERG current change (%, negative = inhibition) at 10uM
A: -58.3

---

- assayed.target: human ether-à-go-go-related gene (hERG) potassium channel (human);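 note: peak tail current of the secondary pulse compared with the same well before compound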
- protocol: primary screen, population patch clamp on CHO cells stably expressing hERG; higher = less effect of the substance
Screen size: about 310,000 compounds; about 14,000 (4.5%) showed an effect of 50% or more. The effect is printed as a negative number. The full list was thinned out, with strong results kept by preference.
Outcome label depends on hERG current change (%, negative = inhibition) at 10uM relative to -30%: at/above gives Y, below gives N.

The following compounds have reported results that may help.
- structure.smiles: "Cc1ccc(C)c(N2CCN(C(=O)CCS(=O)(=O)c3ccc4c(c3)oc(=O)n4C)CC2)c1"
  assigned.label: "N"
- structure.smiles: "Cn1c(=O)cc(OCC(=O)N2CCN(c3ccccc3F)CC2)c2ccccc21"
  assigned.label: "Y"
- structure.smiles: "Cc1ccc(S(=O)(=O)NCCC(=O)OCC(=O)NC(=O)c2cccn2C)cc1"
  assigned.label: "Y"
- structure.smiles: "C=CCNC(=S)/N=c1/ccccn1C"
  assigned.label: "Y"
- structure.smiles: "COC(=O)c1ccccc1OCC(=O)N1CCN(c2ccc(F)cc2)CC1"
  assigned.label: "N"
- structure.smiles: "CCOC(=O)CNC(=O)C1CCN(S(=O)(=O)c2ccc(-c3nn[nH]n3)cc2)CC1"
  assigned.label: "Y"
- structure.smiles: "CC(=O)c1cc(F)ccc1OCC(=O)N1CCN(c2ccc(F)cc2)CC1"
  assigned.label: "N"
- structure.smiles: "CCC(=O)c1cc(F)ccc1OCC(=O)N1CCN(c2ccc(F)cc2)CC1"
  assigned.label: "N"

Q: Kindly determine if hERG current change (%, negative = inhibition) at 10uM recorded for COc1ccc(NCc2nnc(SCCN3CCCCC3)n2-c2ccc(C)cc2)cc1 is above or exactly -30%.
A: N

Q: Kindly determine if hERG current change (%, negative = inhibition) at 10uM recorded for Cc1ccc(S(=O)(=O)N2CCN(C(=O)n3ccnc3)CC2)cc1 is above or exactly -30%.
A: Y

Q: Kindly determine if hERG current change (%, negative = inhibition) at 10uM recorded for CCN(CC(=O)NCc1ccc(F)cc1)C(=O)/C=C/c1cccs1 is above or exactly -30%.
A: N

Q: Kindly determine if hERG current change (%, negative = inhibition) at 10uM recorded for Cc1cccc(N2CCN(C(=O)CCS(=O)(=O)c3ccc4c(c3)oc(=O)n4C)CC2)c1C is above or exactly -30%.
A: N

Q: Kindly determine if hERG current change (%, negative = inhibition) at 10uM recorded for Cc1cc(OCC(=O)N2CCN(c3ccc(F)cc3)CC2)c2c(C)cc(=O)oc2c1 is above or exactly -30%.
A: Y

Q: Kindly determine if hERG current change (%, negative = inhibition) at 10uM recorded for Clc1ccc2oc(-c3ccccn3)nc2c1 is above or exactly -30%.
A: Y

Q: Kindly determine if hERG current change (%, negative = inhibition) at 10uM recorded for COC(=O)c1cccc(NC(=S)Nc2ccccc2Cl)c1 is above or exactly -30%.
A: Y

Q: Kindly determine if hERG current change (%, negative = inhibition) at 10uM recorded for Cc1cc(/C=C2\C(=O)NC(=O)N(Cc3ccco3)C2=O)c(C)n1-c1ccc(C(=O)O)cc1 is above or exactly -30%.
A: Y

Q: Kindly determine if hERG current change (%, negative = inhibition) at 10uM recorded for COC(=O)c1ccc(OC)cc1OCC(=O)N1CCN(c2ccc(F)cc2)CC1 is above or exactly -30%.
A: N

Q: Kindly determine if hERG current change (%, negative = inhibition) at 10uM recorded for O=C(Nc1ccc(Br)cc1)C1CCN(C(=O)c2ccc(F)cc2)CC1 is above or exactly -30%.
A: N

Q: Kindly determine if hERG current change (%, negative = inhibition) at 10uM recorded for C=CCOc1ccc(Br)cc1CNCCO.Cl is above or exactly -30%.
A: Y

Q: Kindly determine if hERG current change (%, negative = inhibition) at 10uM recorded for Cc1ccc(C(=O)NCCOc2ccc(Cl)cc2)cc1 is above or exactly -30%.
A: Y

Q: Kindly determine if hERG current change (%, negative = inhibition) at 10uM recorded for Cl.OCCNCc1cc(Br)ccc1OCc1ccccc1Cl is above or exactly -30%.
A: N

Data origin, for the record: paper PMC4336329
